These data points were gathered from patent US20130295102A1.

Target: T1, Human Factor P (human, UniProt P27918 29-469)
T1 construct: Bought protein (Complement Technology cat# A139) in SET and Biacore; Factor P of human serum in the functional assays; also called FP; human FP
T1 sequence (P27918 29-469 limits assumed): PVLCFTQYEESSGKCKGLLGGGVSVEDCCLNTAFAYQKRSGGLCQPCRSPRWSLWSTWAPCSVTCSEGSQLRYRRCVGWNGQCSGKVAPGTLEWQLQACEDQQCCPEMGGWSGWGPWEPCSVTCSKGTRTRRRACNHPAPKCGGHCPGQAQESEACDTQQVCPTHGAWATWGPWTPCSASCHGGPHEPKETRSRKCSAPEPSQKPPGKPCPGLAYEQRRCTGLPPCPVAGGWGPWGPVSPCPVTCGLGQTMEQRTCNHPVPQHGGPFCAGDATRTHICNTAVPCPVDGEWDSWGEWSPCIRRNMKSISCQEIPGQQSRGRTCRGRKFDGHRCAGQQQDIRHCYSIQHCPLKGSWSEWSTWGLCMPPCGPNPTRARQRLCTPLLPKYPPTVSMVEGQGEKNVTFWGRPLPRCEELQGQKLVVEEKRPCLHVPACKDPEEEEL
Assay: Biacore SPR, captured Factor P
readout label: kon (M⁻¹ s⁻¹)
Only the number, expressed in M⁻¹ s⁻¹, is required.

Example binders with recorded kon:
| binder | kon [M⁻¹ s⁻¹] |
| --- | --- |
| NVS965-S (Fab, V domains shown, NVS965 with heavy chain N30 replaced with serine) VH: EVQLVQSGAEVKKPGSSVKVSCKASGGTFSSYAISWVRQAPGQGLEWMGRIIPIFGTANYAQKFQGRVTITADESTSTAYMELSSLRSEDTAVYYCARHGGYSFDSWGQGTLVTVSS VL: SYVLTQPPSVSVAPGKTARISCSGDNLGSKYVDWYQQKPGQAPVLVIYSDNNRPSGIPERFSGSNSGNTATLTISGTQAMDEADYYCATYDSSPRTEVFGGGTKLTVLG | 3.69e+06 |
| NVS963 (Fab, V domains shown, Disulfide-bridged Fab; also called Fab NVS963) VH: EVQLVQSGAEVKKPGSSVKVSCKASGGTFSSYAISWVRQAPGQGLEWMGPINPYYGDAIYAQKFQGRVTITADESTSTAYMELSSLRSEDTAVYYCARYYSDYMDYWGQGTLVTVSS VL: QSVLTQPPSVSGAPGQRVTISCTGSSSNIGAGYDVHWYQQLPGTAPKLLIHDNSHRPSGVPDRFSGSKSGTSASLAITGLQSEDEADYYCASYDESAHSVFGGGTKLTVLG | 1e+06 |

Here's the next entry for you.
# input Note kon for the binder shown: NVS809 (Fab, V domains shown) VH: EVQLVQSGAEVKKPGSSVKVSCKASGGTFSSYAISWVRQAPGQGLEWMGRIIPIFGTANYAQKFQGRVTITADESTSTAYMELSSLRSEDTAVYYCARHGGYYFDSWGQGTLVTVSS VL: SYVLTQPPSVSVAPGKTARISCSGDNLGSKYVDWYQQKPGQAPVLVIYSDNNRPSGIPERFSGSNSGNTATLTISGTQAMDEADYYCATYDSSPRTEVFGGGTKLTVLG
# output 4.25e+06
